molecular target: T1, human vascular endothelial growth factor receptor-2 Fc chimera (KDR-Fc) (human, UniProt P35968 20-764); assay: radioactive equilibrium binding (assay not given)
T1 construct: range 1-764; also called human VEGFR-2; hKDR; not shown: human IgG1 Fc
T1 sequence (P35968 20-764 limits assumed, change not shown, form in doubt): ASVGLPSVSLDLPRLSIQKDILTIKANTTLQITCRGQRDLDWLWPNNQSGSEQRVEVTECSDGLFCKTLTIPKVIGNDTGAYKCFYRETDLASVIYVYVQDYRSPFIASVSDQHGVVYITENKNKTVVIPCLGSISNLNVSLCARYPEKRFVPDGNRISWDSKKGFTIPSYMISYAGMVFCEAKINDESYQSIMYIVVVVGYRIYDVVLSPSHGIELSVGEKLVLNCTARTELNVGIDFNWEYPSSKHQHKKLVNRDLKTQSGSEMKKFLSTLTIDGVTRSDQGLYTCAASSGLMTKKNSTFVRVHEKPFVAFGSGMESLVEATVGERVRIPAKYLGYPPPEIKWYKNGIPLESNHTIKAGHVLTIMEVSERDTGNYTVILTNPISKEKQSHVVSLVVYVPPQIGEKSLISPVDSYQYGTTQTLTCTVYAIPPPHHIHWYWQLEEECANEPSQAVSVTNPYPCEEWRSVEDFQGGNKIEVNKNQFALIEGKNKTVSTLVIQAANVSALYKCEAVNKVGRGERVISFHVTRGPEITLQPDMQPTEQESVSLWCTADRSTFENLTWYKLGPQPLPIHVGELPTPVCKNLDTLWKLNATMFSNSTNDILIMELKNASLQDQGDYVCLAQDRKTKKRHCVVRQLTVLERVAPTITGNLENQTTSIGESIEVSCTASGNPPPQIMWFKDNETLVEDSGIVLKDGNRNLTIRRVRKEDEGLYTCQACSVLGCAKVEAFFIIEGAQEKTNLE
pKd: −log10 of the molar value.
QUANTITY_MEASURED: pKd

Worked set:
>  <BINDER>
E9 (designed binder, Del 1-8 10Fn3 clone; Flag tag of the radioactive-assay form not included) EVVAATPTSLLISWRHPHFPTRYYRITYGETGGNSPVQEFTVPLQPPTATISGLKPGVDYTITGYAVTEERNGRTLRTPISINYRT

>  <QUANTITY_MEASURED>
pKd

>  <NUMERIC_RESULT>
8.63

$$$$
>  <BINDER>
K2 (designed binder, Del 1-8 10Fn3 clone; Flag tag of the assay form not included) EVVAATPTSLLISWRHPHFPTRYYRITYGETGGNSPVQEFTVPLQPPTATISGLKPGVDYTITGYAVTDGENGQFLLVPISINYRT

>  <QUANTITY_MEASURED>
pKd

>  <NUMERIC_RESULT>
8.92

$$$$
>  <BINDER>
E19 (designed binder, Del 1-8 10Fn3 clone; Tags not included) EVVAATPTSLLISWRHPHFPTRYYRITYGETGGNSPVQEFTVPLQPPTATISGLKPGVDYTITGYAVTVERNGRHLMTPISINYRT

>  <QUANTITY_MEASURED>
pKd

>  <NUMERIC_RESULT>
8.89

$$$$

P. E25 (designed binder, Del 1-8 10Fn3 clone; Flag tag of the radioactive-assay form not included) EVVAATPTSLLISWRHPHFPTRYYRITYGETGGNSPVQEFTVPLQPPTATISGLKPGVDYTITGYAVTLERNGRELMTPISINYRT
Q. K15 (designed binder, Del 1-8 10Fn3 clone; Flag tag of the assay form not included) EVVAATPTSLLISWRHPHFPTRYYRITYGETGGNSPVQEFTVPLQPPTATISGLKPGVDYTITGYAVTEVHHDREIKTPISINYRT
Incoming: Between the entries labeled P and Q , whose measured pKd is lower? Reply briefly: the label of your chosen item.
Outgoing: P
(P: 8.80, Q: 9.46)

Hey, just so you know, these numbers are from patent US20140179896A1.
